Origin of values: patent US12312412

Test system: MAGEB2 peptide … / HLA-A*02:01 / b2m (human)
Protocol text: FACS
Label key: y means Kd under 0.9 nM; n means Kd of 0.9 nM or more.

MA 09-E2 CC (V8T) (antibody, V domains shown) VH: EVQLVESGGGLVQPGGSLRLSCAASGFTFSNAWMSWVRQAPGKCLEWVGRIKSKTYGGTTDYAAPVKGRFTISRDDSKNTLFLQMNSLKTEDTAVYYCTTPSYSGSYYNYFSVMDVWGQGTTVTVSS VL: DIQMTQSPSSLSASVGDRVTITCRTSQSISSYLNWYQQKPGRAPKLLIFAASSLQGGVPSRFSGSGSGTDFTLTISSLQPEDFATYYCQQSYSSPFTFGCGTKVEIK: y
MA 09-F11 CC (L6Q) (antibody, V domains shown) VH: QITLKESGPMLVKPTQTLTLTCTFSGFSFTTHKMGVDWIRQPPGKCLEWLALIYWNDDKRYSPSLQSRLTITKDTSKNQVVLTMTNMDPVDTATYYCAYRRYNWNYENWFDPWGQGTLVTVSS VL: DIQMTQSPDSLSASVGDRVTITCQASQDISNYLNWYQQKPGKAPKLLIYAASSLQSGVPSRFSGSGSGTDFTLTISSLQPEDFATYYCQQSYMWPTIFGCGTKVEIK: y
MA 03-G11_AS CC (O4R) (antibody, V domains shown) VH: EVQLLESGGGLVKPGGSLRLSCAASGFTFSSHAMSWVRQAPGKCLEWVSAISGSGGGTYYAASVKGRFTISRDNSKNTLYLQMNSLRAEDTAVYYCATGKGVHLNFDYWGQGTLVTVSS VL: SYVLTQPPSVSVAPGQTARITCGGNNIGSKSVHWYQQKPGQAPVLVVYDDNDRPSGIPERFSGSNFGNTATLIISRVEAGDEADYYCQVWDYLLPGQVFGCGTKLTVL: n
MA 10-H1 CC (T9K) (antibody, V domains shown) VH: EVQLVESGGGLVQPGGSLRLSCAASGFTFSNAWMSWVRQAPGKCLEWVGRITSGIYGGTTDYAAPVKGRFTISRDDSKNTLYLQMNSLKTEDTAVYYCTTPSYSGSYYNYFSVMDVWGQGTTVTVSS VL: DIQMTQSPSSLSASVGDRVTITCRTSQSISSYLNWYQQKPGRAPKLLIFAASSLQSGVPSRFSGSGSGTDFTLTISSLQPEDFATYYCQQTYSMPFTFGCGTKVDIK: n
MA 09-H7 CC (T3S) (antibody, V domains shown) VH: QITLKESGPALVKPTQTLTLTCTFSGFSFTTHKMGVDWIRQPPGKCLEWLALIYWNDDKRYSPSLQSRLTITKDTSKNQVVLTMTNMDPVDTATYYCAYRRYNWNYENWFDPWGQGTLVTVSS VL: DIQMTQSPSSLSASVGDRVTITCQASQDISNYLNWYQQKPGKAPKLLIYAASSLQSGVPSRFSGSGSGTDFTLTISSLQPEDFATYYCQQSYFPVVEFGCGTKVEIK: y
